Test system: HL60 cells
TEST: AsedaSciences SYSTEMETRIC Cell Health Screen (flow cytometry toxicity profiling)
COND: HL60, 4 h, 5 nM–100 µM, probability 0–1, n = 2
Experimental: To prioritize further optimization, in addition to cellular potency, we utilized the AsedaSciences® […]® Cell Health Screen. […] In a 384-well platform, HL60 cells were exposed to a 10-step, 3 × dilution series of each test compound (5 nM–100 µM) for 4 h at 37 °C with 5% CO2. […] Fluorescence and forward/side-scatter data were collected using automated FC with no gating. […]
Class key for NMI1: Nuclear membrane integrity 1 score values: bottom range (below 0.2), center range (0.2 to below 0.7), top range (0.7 or more)

The following compounds have reported results that may help.
{"columns": ["COMPOUND", "TARGET_UNDER_TEST", "CLASS"],
 "data": [
  ["C#Cc1cccc(Nc2ncnc3ccc(C(F)(F)F)cc23)c1", "HL60 cells", "center range"],
  ["Cc1cn([C@@H]2C[C@@H](O)[C@H](CO)O2)c(=O)[nH]c1=O [Telbivudine, reference compound]", "HL60 cells", "bottom range"],
  ["C#Cc1cccc(Nc2ncnc3cc4c(cc23)OCCO4)c1", "HL60 cells", "top range"],
  ["COc1ccc2cc3[n+](cc2c1OC)CCc1cc2c(cc1-3)OCO2 [Berberine, reference compound]", "HL60 cells", "top range"],
  ["C#Cc1cccc(Nc2ncnc3ccccc23)c1", "HL60 cells", "center range"],
  ["C#Cc1cc(Nc2ncnc3cc(OC)c(OC)cc23)ccc1Cl", "HL60 cells", "center range"]
]}

input: Pick a category. Item: C#Cc1cccc(Nc2ncnc3cc(C#N)ccc23)c1
output: center range

input: Bin this entry: C#Cc1cccc(Nc2ncnc3cc(F)ccc23)c1
output: center range

input: Into which category would you place COc1cc2c(Nc3ccc(Cl)c(Cl)c3F)ncnc2cc1OC[C@@H]1C[C@@H]2CN(C)C[C@@H]2C1 [Tesevatinib, reference compound] ?
output: top range

input: Which category fits this record: O=C(O)c1cc(/N=N/c2ccc(S(=O)(=O)Nc3ccccn3)cc2)ccc1O [Sulfasalazine, reference compound]
output: bottom range

input: Field: class (NMI1: Nuclear membrane integrity 1 score) — entry: Cc1ccc(N(CC2=NCCN2)c2cccc(O)c2)cc1 [Phentolamine, reference compound]
output: center range

input: Looking at CCC(C)(C)C(=O)O[C@H]1C[C@@H](C)C=C2C=C[C@H](C)[C@H](CC[C@@H]3C[C@@H](O)CC(=O)O3)[C@H]21 [Simvastatin, reference compound] , which class would you pick?
output: center range

input: State the class of the compound shown: COc1cc2ncnc(Nc3ccc(F)c(Cl)c3)c2cc1OCCCN1CCOCC1 [Gefitinib, reference compound]
output: center range

input: Hi, small favor: classify O=C(O)CCc1nc(-c2ccccc2)c(-c2ccccc2)o1 [Oxaprozin, reference compound] by its NMI1: Nuclear membrane integrity 1 score when you get a moment.
output: bottom range

input: Into which bin does this compound go? CSc1ccc2c(c1)N(CCC1CCCCN1C)c1ccccc1S2 (centres unmarked) [Thioridazine, reference compound]
output: top range

input: Kindly identify the class of CS(=O)(=O)CCNCc1ccc(-c2ccc3ncnc(Nc4ccc(OCc5cccc(F)c5)c(Cl)c4)c3c2)o1 [Lapatinib, reference compound] .
output: top range

input: GET /class?item= CN(C)C/C=C/C(=O)Nc1cc2c(Nc3ccc(F)c(Cl)c3)ncnc2cc1O[C@H]1CCOC1 [Afatinib, reference compound]
output: top range

input: For the record Clc1cccc(Cl)c1N=C1NCCN1 [Clonidine, reference compound] , report the class its NMI1: Nuclear membrane integrity 1 score corresponds to.
output: bottom range

input: Tag the class for C#Cc1cccc(Nc2ncnc3cc(OC)ccc23)c1
output: center range

input: Hi there! Could you help me figure out the category for C#Cc1cccc(Nc2ccnc3cc(I)ccc23)c1F please?
output: bottom range

input: Band for the recorded NMI1: Nuclear membrane integrity 1 score of CC1(C)NC(=O)N(c2ccc([N+](=O)[O-])c(C(F)(F)F)c2)C1=O [Nilutamide, reference compound] ?
output: center range

====

Tested on: HL60 cells
TEST: AsedaSciences SYSTEMETRIC Cell Health Screen (flow cytometry toxicity profiling)
COND: HL60, 4 h, 5 nM–100 µM, probability 0–1, n = 2
# label = TRUE if ROS: Reactive superoxide species score >= 0.5 else FALSE

Field: example entries. Status: answers known.
{"columns": ["COMPOUND", "CLASS"],
 "data": [
  ["C#Cc1cccc(Nc2ncnc3cc(Br)ccc23)c1", "TRUE"],
  ["C#Cc1cccc(Nc2ncnc3cc(OC)c(OC)cc23)c1F", "FALSE"],
  ["Clc1cccc(Cl)c1N=C1NCCN1 [Clonidine, reference compound]", "FALSE"],
  ["C#Cc1cc(Nc2ncnc3cc(I)ccc23)ccc1Cl", "TRUE"],
  ["COc1cc2c(Nc3ccc(Cl)c(Cl)c3F)ncnc2cc1OC[C@@H]1C[C@@H]2CN(C)C[C@@H]2C1 [Tesevatinib, reference compound]", "TRUE"]
]}

input: // inclusive: ROS: Reactive superoxide species score at least 0.5? input: CC(c1cc2ccccc2s1)N(O)C(N)=O (stereo not shown) [Zileuton, reference compound]
output: FALSE

input: In plain terms: is recorded ROS: Reactive superoxide species score at least 0.5 for C#Cc1cccc(Nc2ncnc3ccc(Cl)cc23)c1 ?
output: FALSE

input: In plain terms: is recorded ROS: Reactive superoxide species score at least 0.5 for Cc1cn([C@@H]2C[C@@H](O)[C@H](CO)O2)c(=O)[nH]c1=O [Telbivudine, reference compound] ?
output: FALSE

====

System: HL60 cells
TEST: AsedaSciences SYSTEMETRIC Cell Health Screen (flow cytometry toxicity profiling)
COND: HL60, 4 h, 5 nM–100 µM, probability 0–1, n = 2
// classify: if (CC: Cell Cycle score < 0.1) y else n

Use the examples below as a reference point.
{"columns": ["COMPOUND", "CLASS"],
 "data": [
  ["C#Cc1cc(Nc2ncnc3cc(I)ccc23)ccc1F", "n"],
  ["C#Cc1cccc(Nc2ncnc3cc(Br)ccc23)c1", "n"],
  ["O=C1CC2(CCCC2)CC(=O)N1CCCCN1CCN(c2ncccn2)CC1 [Buspirone, reference compound]", "n"],
  ["CN1CCN(CCCN2c3ccccc3Sc3ccc(Cl)cc32)CC1 [Prochlorperazine, reference compound]", "n"],
  ["Cc1ccnc2c1NC(=O)c1cccnc1N2C1CC1 [Nevirapine, reference compound]", "y"]
]}

input: Quick check: CC: Cell Cycle score of C=C(C)[C@H]1Cc2c(ccc3c2O[C@@H]2COc4cc(OC)c(OC)cc4[C@@H]2C3=O)O1 [Rotenone, reference compound] under 0.1?
output: n

input: State whether 0.1 exceeds CC: Cell Cycle score recorded for C#Cc1cc(Nc2ncnc3ccc(I)cc23)ccc1Cl .
output: y

input: Please state whether CC: Cell Cycle score is below 0.1 for CC(C(=O)O)c1cccc(C(=O)c2ccccc2)c1 (stereo not drawn) [Ketoprofen, reference compound]
output: y

====

I'd be grateful if you could share measured CC: Cell Cycle score for these entries.
Tested on: HL60 cells
TEST: AsedaSciences SYSTEMETRIC Cell Health Screen (flow cytometry toxicity profiling)
COND: HL60, 4 h, 5 nM–100 µM, probability 0–1, n = 2
Numbers only.

Worked cases, CC: Cell Cycle score given:
{"columns": ["COMPOUND", "VALUE_REPORTED"],
 "data": [
  ["CC(c1cc2ccccc2s1)N(O)C(N)=O (stereo not drawn) [Zileuton, reference compound]", 0.11],
  ["COc1ccc(/C=C/C(=O)Nc2ccccc2C(=O)O)cc1OC [Tranilast, reference compound]", 0.10],
  ["CC(C)(C(=O)O)c1ccc(C(O)CCCN2CCC(C(O)(c3ccccc3)c3ccccc3)CC2)cc1 (stereo not drawn) [Fexofenadine, reference compound]", 0.020],
  ["C#Cc1cccc(Nc2ncnc3cc4c(cc23)OCCO4)c1 [Compound 21]", 0.77]
]}

Could I get CC: Cell Cycle score for every one of these entries?
1. CC(C)(C)c1ccc(C(O)CCCN2CCC(C(O)(c3ccccc3)c3ccccc3)CC2)cc1 (stereo not drawn) [Terfenadine, reference compound]
2. CN(C)CCOC(c1ccccc1)c1ccccc1 [Diphenhydramine, reference compound]

output:
1. 0.98
2. 0.030

Parameter requested: CC: Cell Cycle score. Apply to each item below.
1. Cc1ccc(N(CC2=NCCN2)c2cccc(O)c2)cc1 [Phentolamine, reference compound]
2. C#Cc1ccc(F)c(Nc2ncnc3ccc(I)cc23)c1 [Compound 34]

output:
1: 0.040; 2: 0.25

I'm hoping you can list CC: Cell Cycle score for every compound here, please.
1. C#Cc1cccc(Nc2ncnc3ccc(OC)cc23)c1 [Compound 2]
2. Cc1ccc(-c2cc(C(F)(F)F)nn2-c2ccc(S(N)(=O)=O)cc2)cc1 [Celecoxib, reference compound]
3. C#Cc1cccc(Nc2ncnc3cc(OC)ccc23)c1 [Compound 11]
4. C#Cc1cccc(Nc2ncnc3cc(OC)c(OC)cc23)c1F [Compound 43]
5. O=C(O)CCc1nc(-c2ccccc2)c(-c2ccccc2)o1 [Oxaprozin, reference compound]
6. C#Cc1cc(Nc2ncnc3cc(I)ccc23)ccc1Cl [Compound 41]
7. C#Cc1cccc(Nc2ncnc3ccc(S(C)(=O)=O)cc23)c1 [Compound 19]
8. COc1cc2c(Nc3ccc(Cl)c(Cl)c3F)ncnc2cc1OC[C@@H]1C[C@@H]2CN(C)C[C@@H]2C1 [Tesevatinib, reference compound]

output:
[0.38, 0.61, 0.52, 0.059, 0.060, 0.91, 0.33, 0.96]

Report CC: Cell Cycle score for every entry below.
1. C#Cc1cccc(Nc2ncnc3ccc(C#N)cc23)c1 [Compound 18]
2. C#Cc1cccc(Nc2ccnc3cc(I)ccc23)c1F [Compound 39]

output:
[0.27, 0.64]
